Molecular target: T1, extracellular domain of human CD79b (human, UniProt P40259 29-159)
T1 construct: also called huCD79becd; huCD79b-ecd
T1 sequence: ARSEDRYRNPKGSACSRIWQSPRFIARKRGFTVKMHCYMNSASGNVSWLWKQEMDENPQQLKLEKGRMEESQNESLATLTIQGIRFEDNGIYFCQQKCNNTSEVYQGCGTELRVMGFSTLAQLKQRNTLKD
Assay: phage selection, Fab on phage, plate-bound huCD79becd
Measurement Type: binding result

huMA79b graft variant SEQ ID NO: 64 (Fab, name in Kabat numbering, V domains shown, Fab on phage; rest as huMA79b graft) VH: EVQLVESGGGLVQPGGSLRLSCAASGYPFTSYWIQWVRQAPGKGLEWVGEILPGGGDTNYNEIFKGRFTISADTSKNTAYLQMNSLRAEDTAVYYCTRRVPVYFDYWGQGTLVTVSS VL: DIQMTQSPSSLSASVGDRVTITCKASQSVDYDGDSFLNWYQQKPGKAPKLLIYAASNLESGVPSRFSGSGSGTDFTLTISSLQPEDFATYYCQQSNEDPLTFGQGTKVEIKR	binds
huMA79b graft variant SEQ ID NO: 35 (Fab, name in Kabat numbering, V domains shown, Fab on phage; rest as huMA79b graft) VH: EVQLVESGGGLVQPGGSLRLSCAASGYTFSSYWIEWVRQAPGKGLEWVGEILPGGGDTNYNEIFKGRFTISADTSKNTAYLQMNSLRAEDTAVYYCTRRVPVYFDYWGQGTLVTVSS VL: DIQMTQSPSSLSASVGDRVTITCKASQSVDYDGDSFLNWYQQKPGKAPKLLIYAASNRKSGVPSRFSGSGSGTDFTLTISSLQPEDFATYYCQQSNEDPLTFGQGTKVEIKR	binds
huMA79b graft variant SEQ ID NO: 80 (Fab, name in Kabat numbering, V domains shown, Fab on phage; rest as huMA79b graft) VH: EVQLVESGGGLVQPGGSLRLSCAASGYPFRSYWINWVRQAPGKGLEWVGEILPGGGDTNYNEIFKGRFTISADTSKNTAYLQMNSLRAEDTAVYYCTRRVPVYFDYWGQGTLVTVSS VL: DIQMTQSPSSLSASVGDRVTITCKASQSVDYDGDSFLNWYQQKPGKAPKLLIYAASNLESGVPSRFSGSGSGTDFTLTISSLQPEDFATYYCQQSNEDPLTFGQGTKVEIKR	binds

Origin of measurements: patent USRE48558
